- measured_target: C-Raf FL (Homo sapiens (Human), UniProt P04049, Y340E/Y341E)
- Sequence (P04049 whole entry Y340E/Y341E): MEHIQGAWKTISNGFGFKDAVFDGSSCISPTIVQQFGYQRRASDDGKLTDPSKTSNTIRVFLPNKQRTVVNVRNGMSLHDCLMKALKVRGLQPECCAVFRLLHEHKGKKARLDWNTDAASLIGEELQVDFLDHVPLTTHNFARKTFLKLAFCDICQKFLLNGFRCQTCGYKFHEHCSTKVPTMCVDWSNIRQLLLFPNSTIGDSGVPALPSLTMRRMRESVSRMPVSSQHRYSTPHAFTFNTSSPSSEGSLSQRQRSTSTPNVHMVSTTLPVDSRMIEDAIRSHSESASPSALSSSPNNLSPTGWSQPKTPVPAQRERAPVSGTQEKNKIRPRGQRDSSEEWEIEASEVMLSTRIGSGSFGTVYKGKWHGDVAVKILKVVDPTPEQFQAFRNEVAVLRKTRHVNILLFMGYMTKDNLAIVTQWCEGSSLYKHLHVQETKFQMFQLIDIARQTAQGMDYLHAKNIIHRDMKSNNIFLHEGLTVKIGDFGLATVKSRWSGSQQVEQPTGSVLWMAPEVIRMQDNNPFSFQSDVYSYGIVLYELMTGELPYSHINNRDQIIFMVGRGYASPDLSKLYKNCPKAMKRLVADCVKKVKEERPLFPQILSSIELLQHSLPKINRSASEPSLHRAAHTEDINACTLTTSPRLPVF
- Sequence (P63104 whole entry partner): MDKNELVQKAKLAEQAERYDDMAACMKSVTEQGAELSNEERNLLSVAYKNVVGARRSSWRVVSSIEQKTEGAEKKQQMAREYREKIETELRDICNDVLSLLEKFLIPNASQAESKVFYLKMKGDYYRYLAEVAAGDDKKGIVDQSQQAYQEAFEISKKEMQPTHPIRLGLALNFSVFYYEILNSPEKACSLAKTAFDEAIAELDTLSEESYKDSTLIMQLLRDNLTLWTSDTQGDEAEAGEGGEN
- test_protocol: In vitro Raf activity determination (Alpha Screen, phospho-MEK), C-Raf FL (full length, Y340E/Y341E)
- condition_parameters: ATP 1 μM; 60 min pre-incubation; 1 hour reaction; column head does not say FL or TR
- Excerpt: The activity of a compound according to the present invention can be assessed by well-known in vitro & in vivo methods. Raf inhibition data provided herein was obtained using the following procedures. Sf9 cells co-expressing both proteins were lysed and subjected to immobilized nickel chromatography and eluted with Imidazole. A second column (StrepII binding column) was used and eluted with desthiobiotin. […]
IC50 strictly under 0.07 nM means Y; at 0.07 nM or over means N.

Request: I'd appreciate it if you could check whether Cc1ccc(NC(=O)c2ccnc(C(F)(F)CF)c2)cc1-c1cc(OC[C@H](O)CO)nc(C2CCOCC2)c1 has IC50 smaller than 0.07 nM.
Result: Y

Request: I'd appreciate it if you could check whether Cc1ccc(NC(=O)c2ccnc(C(F)(F)CF)c2)cc1-c1cc(OCCO)nc(C2CCOCC2)c1 has IC50 smaller than 0.07 nM.
Result: Y

Request: I'd appreciate it if you could check whether Cc1ccc(NC(=O)c2ccnc(C(F)(F)F)c2)cc1-c1cc(NCCO)nc(C2CCOCC2)c1 has IC50 smaller than 0.07 nM.
Result: N

Request: I'd appreciate it if you could check whether Cc1ccc(NC(=O)c2ccnc(C(F)(F)F)c2)cc1-c1cc(C2CCOCC2)nc(N2CCC(O)CC2)c1 has IC50 smaller than 0.07 nM.
Result: N

Request: I'd appreciate it if you could check whether CCOc1nnc(-c2cc(NC(=O)c3cnc(N4CCN(CC)CC4)c(C(F)(F)F)c3)ccc2C)cc1C1CCOCC1 has IC50 smaller than 0.07 nM.
Result: N

Request: I'd appreciate it if you could check whether Cc1ccc(NC(=O)c2ccnc(C(C)(F)F)c2)cc1-c1cnc(-c2cnn(C)c2)c(C2(O)COC2)c1 has IC50 smaller than 0.07 nM.
Result: N

====

- measured_target: C-Raf FL (Homo sapiens (Human), UniProt P04049, Y340E/Y341E)
- test_protocol: In vitro Raf activity determination (Alpha Screen, phospho-MEK), C-Raf FL (full length, Y340E/Y341E)
- condition_parameters: ATP 1 μM; 60 min pre-incubation; 1 hour reaction; column head does not say FL or TR
What pIC50 was measured for each of the following?
In textbook form, pIC50 equals minus log to base ten of the concentration in mol/L.

Request: Please report the recorded pIC50 for COc1ncc(-c2cc(NC(=O)c3ccnc(C(C)(C)F)c3)ccc2C)cc1C1(O)COC1 .
Result: 9.38

Request: Please report the recorded pIC50 for CCOc1ncc(-c2cc(NC(=O)c3ccnc(C(F)(F)F)c3)ccc2C)cc1C1(O)COC1 .
Result: 9.43

Request: Please report the recorded pIC50 for Cc1ccc(NC(=O)c2cc(C(F)(F)F)ccn2)cc1-c1cc(OCCO)nc(C2(C)CCOCC2)c1 .
Result: 9.70

Request: Please report the recorded pIC50 for CCOc1ncc(-c2cc(NC(=O)c3ccnc(C(C)(C)F)c3)cnc2C)cc1C1(CF)COC1 [Example 32] .
Result: 9.52

Request: Please report the recorded pIC50 for Cc1ccc(NC(=O)c2cc(C(F)(F)F)ccn2)cc1-c1cc2c(c(C3CCOCC3)c1)NC(=O)C(C)(CO)O2 (single isomer, unassigned) [Example 193] .
Result: 10.70

Request: Please report the recorded pIC50 for COc1ncc(-c2cc(NC(=O)c3cc(C(C)(C)C#N)ccn3)ccc2C)cc1C1(O)COC1 .
Result: 8.93

Request: Please report the recorded pIC50 for Cc1ccc(NC(=O)c2ccnc(C(C)(C)C#N)c2)cc1-c1cc(C2(C)COC2)c2nccn2n1 .
Result: 9.20

Request: Please report the recorded pIC50 for Cc1ncc(NC(=O)c2ccnc(C(C)(F)F)c2)cc1-c1cccc(C2(C)COC2)c1 .
Result: 9.21

Request: Please report the recorded pIC50 for CCOc1ncc(-c2cc(NC(=O)c3ccnc(C(C)(C)C#N)c3)ccc2C)cc1C1(CF)CCOC1 (stereo not drawn) .
Result: 9.22

Request: Please report the recorded pIC50 for CCOc1nnc(-c2cc(NC(=O)c3cccc(C(F)(F)F)c3)cnc2C)cc1C1CCOCC1 .
Result: 10.10

Request: Please report the recorded pIC50 for Cc1ccc(NC(=O)c2ccnc(C(F)(F)F)c2)cc1-c1cc(NCCO)nc(C2(O)COC2)c1 .
Result: 10.00

Request: Please report the recorded pIC50 for Cc1ncc(NC(=O)c2ccnc(C(C)(F)F)c2)cc1-c1cccc(C2COC2)c1 .
Result: 8.80

Request: Please report the recorded pIC50 for CCOc1nnc(-c2cc(NC(=O)c3ccnc(C(F)(F)F)c3)cnc2C)cc1C1CCOCC1 .
Result: 9.52

Request: Please report the recorded pIC50 for Cc1ccc(NC(=O)c2ccnc(C(F)(F)F)c2)cc1-c1cc(C2CCOCC2)c(OC(C)C)nn1 .
Result: 10.00

Request: Please report the recorded pIC50 for Cc1ncc(NC(=O)c2cccc(C(F)(F)F)c2)cc1-c1cc(OCCO)nc(C2(CF)COC2)c1 .
Result: 10.07

Request: Please report the recorded pIC50 for Cc1ncc(NC(=O)c2ccnc(C(C)(C)F)c2)cc1-c1cccc(C2(C)COC2)c1 .
Result: 9.05

Request: Please report the recorded pIC50 for CCOc1nnc(-c2cc(NC(=O)c3ccnc(C4(C(F)(F)F)CC4)c3)ccc2C)cc1C1CCOCC1 .
Result: 9.70

Request: Please report the recorded pIC50 for Cc1ccc(NC(=O)c2ccnc(C(F)(F)F)c2)cc1-c1cc(C2(F)COC2)cc(OCCO)n1 .
Result: 8.36

Request: Please report the recorded pIC50 for Cc1ccc(NC(=O)c2ccnc(C(F)(F)F)c2)cc1-c1cnc(OC2CCOCC2)c(C2(O)COC2)c1 .
Result: 9.53

Request: Please report the recorded pIC50 for Cc1ccc(NC(=O)c2ccnc(C(C)(F)F)c2)cc1-c1cc(OCCO)nc(C2(C)CCOCC2)c1 .
Result: 9.40

Request: Please report the recorded pIC50 for Cc1ncc(NC(=O)c2cccc(C(F)(F)F)c2)cc1-c1cc(C2(O)COC2)cc(C2(F)COC2)c1 .
Result: 8.93

Request: Please report the recorded pIC50 for COc1ncc(-c2cc(NC(=O)c3ccnc(C(C)(F)F)c3)ccc2C)cc1C1(O)COC1 .
Result: 9.44

Request: Please report the recorded pIC50 for COc1ncc(-c2cc(NC(=O)c3ccnc(C(C)(C)C#N)c3)cnc2C)cc1C1(F)COC1 .
Result: 8.70

Request: Please report the recorded pIC50 for Cc1ccc(NC(=O)c2cc(C(F)(F)F)cn(C)c2=O)cc1-c1cc(OCCO)nc(C2CCOCC2)c1 .
Result: 10.00

Request: Please report the recorded pIC50 for Cc1ccc(NC(=O)c2cc3cnccc3nc2C(F)(F)F)cc1-c1cc(OCCO)nc(C2CCOCC2)c1 .
Result: 9.70

Request: Please report the recorded pIC50 for Cc1ccc(NC(=O)c2ccnc(C(F)(F)F)c2)cc1-c1cc(OCCO)nc(C2(CO)CCOCC2)c1 .
Result: 10.00

Request: Please report the recorded pIC50 for Cc1ncc(NC(=O)c2ccnc(C(C)(C)F)c2)cc1-c1cnc(OCCO)c(C2(F)COC2)c1 .
Result: 8.46

Request: Please report the recorded pIC50 for Cc1ccc(NC(=O)c2cc(C(F)(F)F)ncn2)cc1-c1cc(OC[C@H](O)CO)nc(C2CCOCC2)c1 .
Result: 10.22

Request: Please report the recorded pIC50 for COc1ncc(-c2cc(NC(=O)c3ccnc(C(C)(C)C#N)c3)ccc2C)cc1C1(O)COC1 .
Result: 8.99

Request: Please report the recorded pIC50 for Cc1ccc(NC(=O)c2ccnc(C(F)(F)F)c2)cc1-c1cc(C2CCOCC2)c(NC[C@H](C)O)nn1 .
Result: 10.30
